From: the supplement of paper PMC4466140

# target.of.assay: CaBzz1-D1
# experimental.details: SPOT peptide array binding signal intensity (averaged, normalized) (arbitrary units (background-subtracted, floor 0; scale differs between SH3 domains)); higher = stronger binding of the SH3 domain to the peptide
Can you tell me SPOT peptide array binding signal intensity for the items I'm about to list?

Worked examples, 5 binders total:
binder: TKIRRRPQQPLTDFT
value.measured: 137
--
binder: GRSRLFPHSPLGRSS
value.measured: 53.5
--
binder: IKKRNKIRLPSGSPE
value.measured: 104
--
binder: LYEAMPPTLPHRDWK
value.measured: 50.5
--
binder: DGNEEKPLLPTRPNK
value.measured: 18

For each of the items listed, what is its SPOT peptide array binding signal intensity?
1. RRARRQMGIPTISQV
2. NRPAIRIPSLKKPAL
3. NRARYLPQNPDIIAG
4. FVLRYYILIPHEQWD
5. LLGRKRPVMERVVDI
6. RRASLFPRDPKRLRP
7. PKMLPIPSKPTLFDL

A)
98.5
25.5
58
63
236
131
362
